- system: serum α1,3-L-fucosyltransferase (Homo sapiens, UniProt P51993)
- Construct: Sera were collected from healthy females and ovarian cancer patients; from tissue; host or cells: blood serum of ovarian cancer patients and healthy females
- Sequence (P51993 35-359 limits assumed): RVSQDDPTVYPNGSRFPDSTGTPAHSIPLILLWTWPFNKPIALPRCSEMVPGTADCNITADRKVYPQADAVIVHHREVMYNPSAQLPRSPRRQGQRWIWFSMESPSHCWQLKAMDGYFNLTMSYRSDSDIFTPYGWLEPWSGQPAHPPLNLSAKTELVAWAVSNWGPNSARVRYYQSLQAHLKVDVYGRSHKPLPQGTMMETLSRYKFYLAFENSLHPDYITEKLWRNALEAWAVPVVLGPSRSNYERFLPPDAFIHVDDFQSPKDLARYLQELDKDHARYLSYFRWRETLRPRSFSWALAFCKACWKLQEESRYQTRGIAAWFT
- test.description: Assay of α1,3-fucosyltransferase with various synthetic acceptors, ovarian cancer sera as enzyme source
- Format: biochemical
- assay.setup: 2'-methyl LacNAc = 100
observable: Relative Percent (%)

| compound | Relative Percent [%] |
| --- | --- |
| CC(=O)N[C@H]1[C@H](O[C@H]2[C@@H](O)[C@@H](CO)O[C@@H](Oc3ccc([N+](=O)[O-])cc3)[C@@H]2O)O[C@H](CO)[C@@H](O[C@@H]2O[C@H](CO)[C@H](O)[C@H](O)[C@H]2O)[C@@H]1O | 166.8 |

[1] CC(=O)N[C@H]1C(O)O[C@H](COS(=O)(=O)O)[C@@H](O[C@@H]2O[C@H](CO)[C@H](O)[C@H](O)[C@H]2O)[C@@H]1O (stereo partly drawn)
[2] CC(=O)N[C@H]1C(O)O[C@H](CO)[C@@H](O)[C@@H]1O[C@@H]1O[C@H](CO)[C@H](O)[C@H](O)[C@H]1O (stereo partly drawn)
Please compare: 1 and 2 . Report which one has the smaller Relative Percent value. Write the label of whichever entry you select.
2

Sourced from patent US5620864A
